Listing of recorded MIC by entry.
test system: Salmonella typhimurium; assay: Antimicrobial activity against Salmonella typhimurium ATCC 19430 incubated for 18 hrs by agar dilution method; format: functional, Salmonella enterica subsp. enterica serovar Typhimurium; details: Salmonella enterica, ATCC 19430, 18 h
Note: unit µM is implicit; provide only the numeric part.

CCn1cc(C(=O)O)c(=O)c2cc(F)c(N3CCN(C(=O)[C@H](Cc4ccccc4)NC(=O)c4cn(CC)c5cc6c(cc5c4=O)OCO6)CC3)cc21 = 1760

For "CCn1cc(C(=O)NCC(=O)N2CCN(c3cc4c(cc3F)c(=O)c(C(=O)O)cn4C3CC3)CC2)c(=O)c2cc3c(cc21)OCO3" , what is its reported MIC?
7.6

For "O=C(O)c1cn(C2CC2)c2cc(N3CCNCC3)c(F)cc2c1=O" , what is its reported MIC?
9.2

For "CCn1cc(C(=O)O)c(=O)c2cc(F)c(N3CCN(C(=O)CCNC(=O)c4cn(CC)c5cc6c(cc5c4=O)OCO6)CC3)cc21" , what is its reported MIC?
61.6

----------
Listing of recorded MIC by entry.
system: Pseudomonas aeruginosa; assay: Antimicrobial activity against Pseudomonas aeruginosa ATCC 27853 incubated for 18 hrs by agar dilution method; format: functional; conditions: ATCC 27853, 18 h
Note: unit µM is implicit; provide only the numeric part.

CCn1cc(C(=O)NCCCC(=O)N2CCN(c3cc4c(cc3F)c(=O)c(C(=O)O)cn4C3CC3)CC2)c(=O)c2cc3c(cc21)OCO3 = 1890

Continue with the molecule presented below.
For "CCn1cc(C(=O)N[C@@H](Cc2ccccc2)C(=O)N2CCN(c3cc4c(cc3F)c(=O)c(C(=O)O)cn4C3CC3)CC2)c(=O)c2cc3c(cc21)OCO3" , what is its reported MIC?
1730

----------
Listing of recorded MIC by entry.
system: Staphylococcus aureus; test: Antimicrobial activity against Staphylococcus aureus ATCC 25923 incubated for 18 hrs by agar dilution method; format: functional; conditions: ATCC 25923, 18 h
Note: unit µM is implicit; provide only the numeric part.

Observe how each entry below is paired with its result.
CCn1cc(C(=O)NCCC(=O)N2CCN(c3cc4c(cc3F)c(=O)c(C(=O)O)cn4C3CC3)CC2)c(=O)c2ccc(C)nc21 = 1010
CCn1cc(C(=O)O)c(=O)c2cc(F)c(N3CCN(C(=O)[C@H](Cc4ccccc4)NC(=O)c4cn(CC)c5cc6c(cc5c4=O)OCO6)CC3)cc21 = 1760

For "CCn1cc(C(=O)O)c(=O)c2cc(F)c(N3CCN(C(=O)CNC(=O)c4cn(CC)c5nc(C)ccc5c4=O)CC3)cc21" , what is its reported MIC?
33

----------
Listing of recorded MIC by entry.
system: Streptococcus pyogenes; test: Antimicrobial activity against Streptococcus pyogenes ATCC 19615 incubated for 18 hrs by agar dilution method; assay type: functional; conditions: ATCC 19615, 18 h
Note: unit µM is implicit; provide only the numeric part.

CCn1cc(C(=O)O)c(=O)c2cc(F)c(N3CCNCC3)cc21 = 1350
CCn1cc(C(=O)N[C@@H](Cc2ccccc2)C(=O)N2CCN(c3cc4c(cc3F)c(=O)c(C(=O)O)cn4C3CC3)CC2)c(=O)c2ccc(C)nc21 = 1800
O=C(O)c1cn(C2CC2)c2cc(N3CCNCC3)c(F)cc2c1=O = 2390
CC[C@H](C)[C@H](NC(=O)c1cn(CC)c2cc3c(cc2c1=O)OCO3)C(=O)N1CCN(c2cc3c(cc2F)c(=O)c(C(=O)O)cn3C2CC2)CC1 = 1820

For "CCn1cc(C(=O)O)c(=O)c2cc(F)c(N3CCN(C(=O)[C@H](Cc4c[nH]c5ccccc45)NC(=O)c4cn(CC)c5cc6c(cc5c4=O)OCO6)CC3)cc21" , what is its reported MIC?
1670

For "CC[C@H](C)[C@H](NC(=O)c1cn(CC)c2cc3c(cc2c1=O)OCO3)C(=O)N1CCN(c2cc3c(cc2F)c(=O)c(C(=O)O)cn3CC)CC1" , what is its reported MIC?
1850

For "CCn1cc(C(=O)O)c(=O)c2cc(F)c(N3CCN(C(=O)CCCNC(=O)c4cn(CC)c5cc6c(cc5c4=O)OCO6)CC3)cc21" , what is its reported MIC?
965

Data credit: ChEMBL document CHEMBL3608264
